Listing: cytotoxicity at 70.5 h of selected compounds
# Assay Comment: Human HepG2 cell viability assay in 384 well format
# Format: toxicity, cell-based
# Parameters: dose 125 nL, time 70.5 hour; concentration not given beside the values
# Run Parameters: HepG2 cells, read-out: Inhibition
The reply should be a number in %, with the unit left off.

Below, each entry is followed by its recorded cytotoxicity at 70.5 h result.
>>> print(df.to_string())
                                   compound  recorded_value
0  CC(CNCc1ccncc1)Oc1ccccn1 (stereo unspecified)           -12.5
1  Cc1c(C)c(C)c2[nH]c(-c3cn(C4CCNCC4)nn3)nc2c1C           -5.74
2  CCCN1CCC(CC(=O)N(C)C(C)c2cncs2)CC1 (stereo unspecified)           -16.1
3  O=C(CN1CCCC(c2ccn[nH]2)C1)Nc1nc2c(s1)CCCC2 (stereo unspecified)            1.65
4  CCC1c2cccn2CCN1C(=O)c1cc(OC)nc(OC)n1 (stereo unspecified)            44.1

Form field cytotoxicity at 70.5 h, entry Cc1occc1C(=O)Nc1cnn(CCN2CCOCC2)c1 : 16.8

Measured cytotoxicity at 70.5 h, CC(=O)Nc1ncc(S(=O)(=O)Nc2ccc(F)cc2F)s1 : -0.452

Lab note: CN1CCO[C@@H]2CN(S(=O)(=O)c3ccccc3)CC[C@@H]2C1 gave cytotoxicity at 70.5 h of -5

COc1cc(C)c(C2CC(=O)NCc3nc4sccn4c32)cc1C (stereo unspecified) yielded cytotoxicity at 70.5 h of -18

Item: O=S(=O)(C1CC1)N1CC[C@]2(C[C@@H](Oc3ccccn3)CO2)C1 | cytotoxicity at 70.5 h: -18.9

The recorded cytotoxicity at 70.5 h for entry O=C1[C@@H]2CCN(Cc3ccoc3)C[C@@H]2OCCN1Cc1cccnc1 equals -20.5

====

Entries and their cytotoxicity at 70.5 h values follow.
# Assay Comment: Human HepG2 cell viability assay in 384 well format
# Assay type: toxicity, cell-based
# Set-up: dose 125 nL, time 70.5 hour; concentration not given beside the values
# Run Parameters: HepG2 cells, read-out: Inhibition
Your answer should be a plain number; it is taken to be in %.

                                   compound  recorded_value
0  O=C(CCc1ccc(Cl)s1)N1CCCC(N2CCNC2=O)C1 (stereo not drawn)           -17.9
1  O=C(NC1CCCC1)N1CCC2(CC1)CC(Oc1cccnc1)CO2 (stereo not drawn)            26.9
2  CN1[C@H]2CC[C@@H]1CN(c1nc(-c3ccncc3)nc3c1cnn3C)CC2           -2.38
3  Cc1n[nH]c2nc(-c3cccc(Cl)c3)cc(C(=O)O)c12             9.1

Field cytotoxicity at 70.5 h (entry c1cncc(O[C@H]2COCCN(Cc3c[nH]c4ccccc34)C2)c1 ) reads 4.1

Entry CC(C)NC(=O)N1CCCn2cnc(CN3CCCC3=O)c2C1 , cytotoxicity at 70.5 h reported as 27.9

// sample CC(C)(N)CNS(=O)(=O)Cc1cccc2cccnc12 , its cytotoxicity at 70.5 h was 1.51

For this compound ( O[C@@H]1CN(Cc2cccc(F)c2)CC[C@H]1NCc1ccccn1 ), measured cytotoxicity at 70.5 h is 12.7

Recorded cytotoxicity at 70.5 h (compound CN(C)CCNc1ncccc1CNC(=O)Nc1cc(F)cc(F)c1 ): -12

====

# Assay Comment: Human HepG2 cell viability assay in 384 well format
# Type: toxicity, cell-based
# Design: dose 125 nL, time 70.5 hour; concentration not given beside the values
# Run Parameters: HepG2 cells, read-out: Inhibition
cytotoxicity at 70.5 h reference
Report as a plain number; the unit % is understood.

                                   compound  scale_unit  recorded_value
0  CNCCN1C(=O)CC[C@H]2CN(c3ncc(F)cn3)CC[C@H]21           %              20
1  O=C(c1cc(=O)[nH]c(=O)[nH]1)N1CCCC(CO)(CC2CC2)C1 (configuration not stated)           %           -10.5
2  Cn1cc(C(=O)Nc2ccc3c(c2)CN(C(=O)C2CC2)CC3)nn1           %           -8.54
3               CCn1ccnc1SCCn1cnc2ccsc2c1=O           %             -10
4    Cc1cnc(C(=O)N2CCCN(Cc3csc(C)n3)CC2)cn1           %           -5.72
5  CCn1cc(Cn2cc(-c3cccc(C(C)N(C)C)c3)nn2)cn1 (configuration not stated)           %           -6.09
6  Cn1cccc1C(=O)N1CCC2(CC1)CN(S(C)(=O)=O)c1ccccc12           %            3.63
7  CC1CCC(O)(CSc2nnnn2C2CC2)CC1 (configuration not stated)           %           -1.68
8  Cc1cc2nc(C(C)C)cc(N3CCC(N(C)C)C3)n2n1 (configuration not stated)           %            2.59
9      Cc1ccccc1CS(=O)(=O)CC(=O)NCc1ccccc1F           %             4.2

For this compound ( Cn1ccnc1C(=O)N1CCCC1c1ccc(C(=O)N2CCOCC2)s1 (configuration not stated) ), measured cytotoxicity at 70.5 h is -2.53

Looking up Cc1nc(CN2CCCC(NCc3ccc4c(c3)CCO4)C2)no1 (configuration not stated) , I found its cytotoxicity at 70.5 h recorded as 14.2

cytotoxicity at 70.5 h recorded for this compound, O=C(NC1CCS(=O)(=O)C1)c1ccc(-c2ccc(F)cc2)s1 (configuration not stated) , is -0.198

Kindly note the recorded cytotoxicity at 70.5 h for Cc1cc(C)c(S(=O)(=O)Nc2cccc3c2OCCO3)cc1C(=O)O , which is -27.2

Sample N#Cc1ccc(NCCC2CCN(CC(F)(F)F)CC2)nc1 ; cytotoxicity at 70.5 h observed: 2.24

Entry Cc1ccc(-c2noc([C@@H]3Cc4nc[nH]c4CN3)n2)cc1 — recorded cytotoxicity at 70.5 h = -11.9

Kindly note the recorded cytotoxicity at 70.5 h for O=C(NCCc1cccc(F)c1)C1(n2cnnn2)CCCCC1 , which is -3.65

====

# Assay Comment: Human HepG2 cell viability assay in 384 well format
# Type: toxicity, cell-based
# Design: dose 125 nL, time 70.5 hour; concentration not given beside the values
# Run Parameters: HepG2 cells, read-out: Inhibition
Endpoint Name: cytotoxicity at 70.5 h (%)
Report only the number, with the unit % understood.

Study these solved cases before continuing.
>>> df
                                   compound           endpoint_name  scale_unit  recorded_value
0      COc1cc(C(=O)N2CCCS2(=O)=O)cc(Cl)c1OC  cytotoxicity at 70.5 h           %           -9.28
1  Cn1ccnc1CN1CCOC(Cc2ccccc2)C1 (stereo not given)  cytotoxicity at 70.5 h           %           -3.39
2  CCOCCN1CCN(CC(=O)N2CCC2)CC1CC (stereo not given)  cytotoxicity at 70.5 h           %           -7.02
3  CC(NCCN1CCC(N(C)C)CC1)c1ccc(F)cc1N(C)C (stereo not given)  cytotoxicity at 70.5 h           %              15
4  CCNC(=O)[C@@H]1C[C@H](NC(=O)c2cc(=O)[nH]c3ccc(C)cc23)CN1C  cytotoxicity at 70.5 h           %           -7.81

Per the records, this compound ( CO[C@@H]1CO[C@@]2(CCCN(S(=O)(=O)c3ccccc3)C2)C1 ) has cytotoxicity at 70.5 h equal to -14.8

The reported value for COc1ccc(Cl)cc1NC(=O)N1CCc2nc(NC(C)=O)sc2C1 in terms of cytotoxicity at 70.5 h is -5.4

cytotoxicity at 70.5 h reported for this compound CC(C)CN1CC2(CCN(C(=O)C(O)c3ccccc3Cl)CC2)CC1=O (stereo not given) : -5.68

For this compound ( Cc1nnn2c1COCC(CNC(=O)c1cnoc1C)C2 (stereo not given) ), measured cytotoxicity at 70.5 h is 0.126

Reported cytotoxicity at 70.5 h for COc1ccc(CNC(=O)N2CCc3sccc3C2)cc1O was -10.2

# compound Cc1ccccc1-c1noc(CN2CCn3c(nnc3C3CC3)C2)n1 ; its cytotoxicity at 70.5 h = 20.5

====

# Assay Comment: Human HepG2 cell viability assay in 384 well format
# Format: toxicity, cell-based
# Design: dose 125 nL, time 70.5 hour; concentration not given beside the values
# Run Parameters: HepG2 cells, read-out: Inhibition
Here the recorded cytotoxicity at 70.5 h is given for each entry.
Reply with a number, then the unit it belongs to.

cytotoxicity at 70.5 h reading for Cc1nc(CN2CCCN(CCCc3ccccc3)CC2)no1 : -7.12%
